Experiment: Weekly food intake of SHR rats
Assay type: in vivo, rat
Conditions: 120 mg/kg/d intragastric, week 3
Protocol: 2.1 Grouping and administration of animals: 112 SHR rats (the female and male SHR rats are half and half, and the female rats are not pregnant) with the body weight of 200-250 g are taken, the rats are enabled to adapt to a laboratory for a period of 5 d, blood pressure is measured once at a day to enable the rats to adapt to the environment and detect stimulation. […]
Marks after values point to notes of the source that are not given here.
observation.type: Average dairy food intake

As a guide, the following entries are already answered.
compound | observation.type | val
CC(=O)Oc1ccccc1C(=O)O[C@H]1C(=O)O[C@H]2O[C@]34C(=O)OC5C[C@@H](C(C)(C)C)C21[C@@]53[C@@H](O)[C@@H]1OC(=O)[C@@H](C)[C@@]14O (stereo partly drawn) | Average dairy food intake | 20.8^▴▴ g/d
Cc1nc(C)c(CO[C@H]2C(=O)O[C@H]3O[C@]45C(=O)OC6C[C@@H](C(C)(C)C)C32[C@@]64[C@@H](O)[C@@H]2OC(=O)[C@@H](C)[C@@]25O)nc1C (stereo partly drawn) | Average dairy food intake | 22.6^▴▴ g/d
Cc1nc(C)c(C(=O)O[C@H]2C(=O)O[C@H]3O[C@]45C(=O)OC6C[C@@H](C(C)(C)C)C32[C@@]64[C@@H](O)[C@@H]2OC(=O)[C@@H](C)[C@@]25O)nc1C (stereo partly drawn) | Average dairy food intake | 22.0^▴▴ g/d
CC1C(=O)OC2C(O)C34C5CC(C(C)(C)C)C36C(OC(=O)C6O)OC4(C(=O)O5)C12O (stereo not drawn) [GB, ginkgolide B] | Average dairy food intake | 20.6^▴▴ g/d
C[C@@H]1C(=O)O[C@H]2[C@H](O)[C@@]34C5C[C@@H](C(C)(C)C)C36[C@@H](OC(=O)[C@@H]6OC(=O)[C@H](c3ccccc3Cl)N3CCc6sccc6C3)O[C@@]4(C(=O)O5)[C@@]12O (stereo partly drawn) | Average dairy food intake | 21.9^▴▴ g/d

Exam item: # lookup: Average dairy food intake of CCCCC(OC(C)=O)c1ccccc1C(=O)O[C@H]1C(=O)O[C@H]2O[C@]34C(=O)OC5C[C@@H](C(C)(C)C)C21[C@@]53[C@@H](O)[C@@H]1OC(=O)[C@@H](C)[C@@]14O (stereo partly drawn)
Marked response: 21.0^▴▴ g/d

----------
Assay: Weekly body weight of SHR rats
Type: in vivo, rat
Conditions: 120 mg/kg/d intragastric, week 1
Marks after values point to notes of the source that are not given here.
observation.type: Body weight

molecule | observation.type | val
Cc1nc(C)c(CO[C@H]2C(=O)O[C@H]3O[C@]45C(=O)OC6C[C@@H](C(C)(C)C)C32[C@@]64[C@@H](O)[C@@H]2OC(=O)[C@@H](C)[C@@]25O)nc1C (stereo partly drawn) | Body weight | 249.5^▴▴ g

Exam item: Please give the measured Body weight for this molecule: Cc1nc(C)c(C(=O)O[C@H]2C(=O)O[C@H]3O[C@]45C(=O)OC6C[C@@H](C(C)(C)C)C32[C@@]64[C@@H](O)[C@@H]2OC(=O)[C@@H](C)[C@@]25O)nc1C (stereo partly drawn)
Marked response: 249.4^▴▴ g

Exam item: Data request, read-out Body weight, for CC1C(=O)OC2C(O)C34C5CC(C(C)(C)C)C36C(OC(=O)C6O)OC4(C(=O)O5)C12O (stereo not drawn) [GB, ginkgolide B]
Marked response: 250.3^▴▴ g

Exam item: Which Body weight value belongs to CCCCC(OC(C)=O)c1ccccc1C(=O)O[C@H]1C(=O)O[C@H]2O[C@]34C(=O)OC5C[C@@H](C(C)(C)C)C21[C@@]53[C@@H](O)[C@@H]1OC(=O)[C@@H](C)[C@@]14O (stereo partly drawn) ?
Marked response: 252.0^▴▴ g

Exam item: Body weight for CC(=O)Oc1ccccc1C(=O)O[C@H]1C(=O)O[C@H]2O[C@]34C(=O)OC5C[C@@H](C(C)(C)C)C21[C@@]53[C@@H](O)[C@@H]1OC(=O)[C@@H](C)[C@@]14O (stereo partly drawn) ?
Marked response: 251.4^▴▴ g

Exam item: What value of measured Body weight is listed for C[C@@H]1C(=O)O[C@H]2[C@H](O)[C@@]34C5C[C@@H](C(C)(C)C)C36[C@@H](OC(=O)[C@@H]6OC(=O)[C@H](c3ccccc3Cl)N3CCc6sccc6C3)O[C@@]4(C(=O)O5)[C@@]12O (stereo partly drawn) ?
Marked response: 251.8^▴▴ g
